The reported measurements were obtained from paper PMC3215888.

- Tested on: NB-1643 neuroblastoma cell line
- MEASUREMENT NOTES: DIMSCAN in vitro testing, 96 h
- Format: cell-based
- ASSAY CONDITIONS: NB-1643, 96 h, read-out: Absolute IC50
OUTCOME MEASURE: IC50 (nM)
Write the number in nM without appending the unit.

Task: Fill in the blank: the reported IC50 of COc1cc(Nc2ncc3c(n2)-c2ccc(Cl)cc2C(c2c(F)cccc2OC)=NC3)ccc1C(=O)O is ____.
Result: 37

====

- System: SMS-KAN neuroblastoma cell line
- MEASUREMENT NOTES: DIMSCAN in vitro testing, 96 h
- Format: cell-based
- ASSAY CONDITIONS: read-out: Absolute IC50
OUTCOME MEASURE: pIC50
Give only the number. pIC50 is defined as minus log10 of concentration in molar units.

Task: Fill in the blank: the reported pIC50 of COc1cc(Nc2ncc3c(n2)-c2ccc(Cl)cc2C(c2c(F)cccc2OC)=NC3)ccc1C(=O)O is ____.
Result: 7.47
